molecular target: JAK3 (Homo sapiens, UniProt P52333); test: In vitro JAK3 inhibition (no preincubation); assay type: biochemical
Sequence (P52333 whole entry, species assumed): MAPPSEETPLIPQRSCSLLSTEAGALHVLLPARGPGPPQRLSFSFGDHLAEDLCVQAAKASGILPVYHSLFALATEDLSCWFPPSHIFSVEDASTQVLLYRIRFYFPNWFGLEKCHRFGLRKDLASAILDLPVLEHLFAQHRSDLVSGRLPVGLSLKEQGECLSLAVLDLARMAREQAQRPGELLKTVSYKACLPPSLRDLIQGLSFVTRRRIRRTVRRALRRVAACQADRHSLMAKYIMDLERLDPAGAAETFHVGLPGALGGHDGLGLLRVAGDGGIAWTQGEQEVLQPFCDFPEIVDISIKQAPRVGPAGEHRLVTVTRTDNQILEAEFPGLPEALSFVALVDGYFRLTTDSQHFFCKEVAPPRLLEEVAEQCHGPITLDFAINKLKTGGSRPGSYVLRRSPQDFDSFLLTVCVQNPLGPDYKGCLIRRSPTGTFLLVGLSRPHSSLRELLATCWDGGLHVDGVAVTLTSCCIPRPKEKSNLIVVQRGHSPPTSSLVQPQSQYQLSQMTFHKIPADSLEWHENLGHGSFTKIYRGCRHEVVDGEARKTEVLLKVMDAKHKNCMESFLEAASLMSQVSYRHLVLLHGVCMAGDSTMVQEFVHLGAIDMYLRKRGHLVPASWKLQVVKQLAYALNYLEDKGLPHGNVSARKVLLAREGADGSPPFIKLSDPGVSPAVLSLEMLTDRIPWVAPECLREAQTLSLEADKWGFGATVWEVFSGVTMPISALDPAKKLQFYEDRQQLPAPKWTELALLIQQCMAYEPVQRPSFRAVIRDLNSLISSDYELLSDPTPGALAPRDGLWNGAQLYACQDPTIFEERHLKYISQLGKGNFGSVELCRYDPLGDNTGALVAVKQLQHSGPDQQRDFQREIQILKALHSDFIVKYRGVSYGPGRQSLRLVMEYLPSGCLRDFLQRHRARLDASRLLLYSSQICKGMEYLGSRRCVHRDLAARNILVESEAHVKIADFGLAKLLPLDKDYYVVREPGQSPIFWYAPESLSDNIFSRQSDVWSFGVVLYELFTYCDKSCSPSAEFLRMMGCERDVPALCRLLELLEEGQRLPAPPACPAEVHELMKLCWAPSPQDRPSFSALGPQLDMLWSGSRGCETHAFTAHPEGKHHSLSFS
measurement.type: IC50

IC50 reported for this compound C[C@H]1CC[C@@H](Nc2ncnc3[nH]ccc23)CN1S(=O)(=O)c1c(F)c(F)c(F)c(F)c1F [Compound 3A-25] : 1 to 10 µM

---

tested on: tubulin; assay: Tubulin polymerization assay; format: biochemical; conditions: degree of polymerization relative to tubulin control; note: test concentration or dose not given here
measurement.type: % D.O.P.

Here is how some compounds turned out for % D.O.P..
COc1ccc(NS(=O)(=O)c2c(F)c(F)c(F)c(F)c2OC2CCCC2)cc1F :: A (>85%)
COc1ccc(NS(=O)(=O)c2c(F)c(F)c(F)c(F)c2OC(F)(F)F)cc1F :: B (< 85%)
CCOc1c(F)c(F)c(F)c(F)c1S(=O)(=O)Nc1ccc(OC)c(F)c1 :: A (>85%)
COc1ccc(NS(=O)(=O)c2c(F)c(F)c(F)c(F)c2OC2CCC2)cc1F :: A (>85%)
COc1ccc(NS(=O)(=O)c2c(F)c(F)c(F)c(F)c2Oc2ccc(OC)c(F)c2)cc1F :: B (< 85%)

I'm hoping you can list % D.O.P. for every compound here, please.
1. COc1ccc(NS(=O)(=O)c2c(F)c(F)c(F)c(F)c2OC)cc1F
2. COc1ccc(CN(Cc2ccc(OC)cc2)S(=O)(=O)c2c(O)c(F)c(F)c(F)c2F)cc1
3. O=S(=O)(Nc1ccc(F)cc1)c1c(F)c(F)c(F)c(F)c1OC1CC1
4. COc1ccc(NS(=O)(=O)c2c(F)c(F)c(F)c(F)c2Oc2ccccc2)cc1F
5. COc1ccc(NS(=O)(=O)c2c(F)c(F)c(F)c(F)c2OC(F)F)cc1F
6. COc1ccc(NS(=O)(=O)c2c(N)c(F)c(F)c(F)c2F)cc1F

Response given:
1: A (>85%); 2: A (>85%); 3: A (>85%); 4: B (< 85%); 5: B (< 85%); 6: A (>85%)
